# measurement_protocol: Liver microsomal stability (mouse)
# Format: in vitro ADME
# condition_parameters: mouse, microsomes, pH 7.4, Half life T-half

# compound, half-life [min]
rows = [
    ("CN1CC=C(c2cnc(NCc3c(F)ccc4c3CCO4)n3cnnc23)CC1 [SL-E23]", 38.6),
]

----------
# measurement_protocol: Liver microsomal stability (rat)
# Assay type: in vitro ADME
# condition_parameters: rat liver microsomes
Please use MET for Liver clearance rate Clint Hep In Vivo Extpl under 9 mL/min and NOT MET for everything else, ties included.

# molecule, label
rows = [
    ("CN(C)CC(=O)N1CC=C(c2cnc(NCc3c(F)ccc4c3CCO4)n3cnnc23)CC1 [E-Y54]", "MET"),
    ("O=C(CN1CCOCC1)N1CC=C(c2cnc(NCc3c(F)ccc4c3CCO4)n3cnnc23)CC1", "NOT MET"),
    ("O=C(C1CCOCC1)N1CC=C(c2cnc(NCc3c(F)ccc4c3CCO4)n3cnnc23)CC1", "NOT MET"),
    ("CC(=O)N1CC=C(c2cnc(NCc3c(F)ccc4c3CCO4)n3cnnc23)CC1", "NOT MET"),
    ("CC(=O)N1CCC(c2cnc(NCc3c(F)ccc4c3CCO4)n3cnnc23)CC1", "MET"),
    ("Fc1ccc2c(c1CNc1ncc(C3CCOCC3)c3nncn13)CCO2", "MET"),
    ("CN(C)CC(=O)N1CC=C(c2cnc(NCc3c(F)ccc4c3CCO4)n3cnnc23)CC1 [E-Y54-H]", "MET"),
]
